From: paper PMC10477886

Reported pIC50 values follow for various compounds
# Test system: HIF‐1α transcriptional activity
# MEASUREMENT_NOTES: dual‐luciferase assay (HRE‐Firefly Luciferase / renilla) of HIF‐1α transcriptional activity in HEK293T cells
# Assay type: cell-based, human
# CONDITION_LABEL: Homo sapiens, HEK-293T; HEK293T dual‐luciferase; mean ± s.d. (n = 3)
pIC50: −log10 of the molar value.
ASSAY_ENDPOINT: pIC50

• COc1cccc(C(=O)Nc2ccc(C34CC5CC(CC(C5)C3)C4)cc2)c1 = 6.09
• O=C(Nc1ccc(C23CC4CC(CC(C4)C2)C3)cc1)c1cncs1 = 6.28
• O=C(Nc1ccc(C23CC4CC(CC(C4)C2)C3)cc1)c1cccc(Cl)c1 = 5.70
• CC(=O)Nc1ccc(C(=O)Nc2ccc(C34CC5CC(CC(C5)C3)C4)cc2)cc1 = 6.02
• Nc1ccc(C(=O)Nc2ccc(C34CC5CC(CC(C5)C3)C4)cc2)cc1 = 6.96
• CC(NC(=O)c1ccc(NC(=O)c2ccccn2)cc1)C12CC3CC(CC(C3)C1)C2 (stereo not drawn) = 5.68
• O=C(Nc1ccc(C23CC4CC(CC(C4)C2)C3)cc1)c1ccccn1 = 7.19
• O=C(CCCCN1CCOCC1)Nc1cccc(C(=O)Nc2ccc(C34CC5CC(CC(C5)C3)C4)cc2)c1 = 6.43
• O=C(CC12CC3CC(CC(C3)C1)C2)Nc1ccc(NC(=O)c2ccccn2)cc1 = 5.46

----------
# key: entry, value: pIC50
# System: HIF‐1α transcriptional activity
# MEASUREMENT_NOTES: dual‐luciferase assay (HRE‐Firefly Luciferase / renilla) of HIF‐1α transcriptional activity in HEK293T cells
# Format: cell-based, human
# CONDITION_LABEL: Homo sapiens, HEK-293T; HEK293T dual‐luciferase; mean ± s.d. (n = 3)
pIC50: −log10 of the molar value.
ASSAY_ENDPOINT: pIC50

- COc1ccc(C(=O)Nc2ccc(C34CC5CC(CC(C5)C3)C4)cc2)cc1: 5.80
- O=C(Nc1ccc(C23CC4CC(CC(C4)C2)C3)cc1)c1cc[nH]n1: 7.10
- O=C(Nc1ccc(C23CC4CC(CC(C4)C2)C3)cc1)c1cc(Cl)ccn1: 6.14
- Nc1ccnc(C(=O)Nc2ccc(C34CC5CC(CC(C5)C3)C4)cc2)c1: 7.14
- Nc1ccccc1C(=O)Nc1ccc(C23CC4CC(CC(C4)C2)C3)cc1: 6.27
- O=C(Nc1ccc(C23CC4CC(CC(C4)C2)C3)cc1)c1ccncn1: 6.55
- Cn1cncc1C(=O)Nc1ccc(C23CC4CC(CC(C4)C2)C3)cc1: 7.08
- O=C(Nc1ccc(C23CC4CC(CC(C4)C2)C3)cc1)c1ccccc1O: 6.29
- O=C(NC1C2CC3CC(C2)CC1C3)c1ccc(NC(=O)c2ccccn2)cc1 (stereo not drawn): 5.82

----------
# System: HIF‐1α transcriptional activity
# MEASUREMENT_NOTES: dual‐luciferase assay (HRE‐Firefly Luciferase / renilla) of HIF‐1α transcriptional activity in HEK293T cells
# Type: cell-based, human
# CONDITION_LABEL: Homo sapiens, HEK-293T; HEK293T dual‐luciferase; mean ± s.d. (n = 3)
pIC50: −log10 of the molar value.
# Lookup of reported pIC50 keyed by entry
ASSAY_ENDPOINT: pIC50

* O=C(CCCCBr)Nc1cccc(C(=O)Nc2ccc(C34CC5CC(CC(C5)C3)C4)cc2)c1 | 6.00
* CN(C)CCCC(=O)Nc1ccc(C(=O)Nc2ccc(C34CC5CC(CC(C5)C3)C4)cc2)cc1 | 6.03
* C[N+](C)(C)CCCC(=O)Nc1ccc(C(=O)Nc2ccc(C34CC5CC(CC(C5)C3)C4)cc2)cc1 | 5.89
* CC1=CC(C)=[N+]2C1=C(CCCC(=O)Nc1ccc(C(=O)Nc3ccc(C45CC6CC(CC(C6)C4)C5)cc3)cc1)c1c(C)cc(C)n1[B-]2(F)F | 5.68
* CC(=O)Nc1cccc(C(=O)Nc2ccc(C34CC5CC(CC(C5)C3)C4)cc2)c1 | 5.72
* CN1CCN(CCCCC(=O)Nc2cccc(C(=O)Nc3ccc(C45CC6CC(CC(C6)C4)C5)cc3)c2)CC1 | 5.89
* O=C(Nc1ccc(C23CC4CC(CC(C4)C2)C3)cc1)c1c[nH]cn1 | 7.07
* Nc1cccc(C(=O)Nc2ccc(C34CC5CC(CC(C5)C3)C4)cc2)n1 | 6.96

----------
# Test system: HIF‐1α transcriptional activity
# MEASUREMENT_NOTES: dual‐luciferase assay (HRE‐Firefly Luciferase / renilla) of HIF‐1α transcriptional activity in HEK293T cells
# Format: cell-based, human
# CONDITION_LABEL: Homo sapiens, HEK-293T; HEK293T dual‐luciferase; mean ± s.d. (n = 3)
ASSAY_ENDPOINT: IC50 (nM)

- CN1CCN(CCCCC(=O)Nc2ccc(C(=O)Nc3ccc(C45CC6CC(CC(C6)C4)C5)cc3)cc2)CC1: 1400
- O=C(Nc1ccc(C23CC4CC(CC(C4)C2)C3)cc1)c1ccc(O)cc1: 53
- O=C(Nc1ccc(C23CC4CC(CC(C4)C2)C3)cc1)c1cccc(O)c1: 26
- CN(C)CCCC(=O)Nc1cccc(C(=O)Nc2ccc(C34CC5CC(CC(C5)C3)C4)cc2)c1: 2100

----------
# Tested on: HIF‐1α transcriptional activity
# MEASUREMENT_NOTES: dual‐luciferase assay (HRE‐Firefly Luciferase / renilla) of HIF‐1α transcriptional activity in HEK293T cells
# Format: cell-based, human
# CONDITION_LABEL: Homo sapiens, HEK-293T; HEK293T dual‐luciferase; mean ± s.d. (n = 3)
pIC50: −log10 of the molar value.
Where pIC50 equals or exceeds 6, the correct label is true; where it does not, the label is false.

• CC(C)(C)OC(=O)Nc1cccc(C(=O)Nc2ccc(C34CC5CC(CC(C5)C3)C4)cc2)c1 = false
• Nc1cccc(C(=O)Nc2ccc(C34CC5CC(CC(C5)C3)C4)cc2)c1 = true
• C[N+](C)(C)CCCC(=O)Nc1cccc(C(=O)Nc2ccc(C34CC5CC(CC(C5)C3)C4)cc2)c1 = false
• O=C(Nc1ccc(C23CC4CC(CC(C4)C2)C3)cc1)c1cccs1 = true
• O=C(CCCCBr)Nc1ccc(C(=O)Nc2ccc(C34CC5CC(CC(C5)C3)C4)cc2)cc1 = false
• COC(=O)c1ccc(O)c(NC(=O)COc2ccc(C34CC5CC(CC(C5)C3)C4)cc2)c1 [LW6, reference compound] = false
• Nc1cccnc1C(=O)Nc1ccc(C23CC4CC(CC(C4)C2)C3)cc1 = true

----------
# MEASUREMENT_NOTES: plasma concentration and pharmacokinetics after intraperitoneal administration in ICR mice
# Format: in vivo
# CONDITION_LABEL: mouse, ip, intraperitoneal, plasma, read-out: maximum concentration (Cmax)
ASSAY_ENDPOINT: Cmax (µg/mL)

• C[N+](C)(C)CCCC(=O)Nc1ccc(C(=O)Nc2ccc(C34CC5CC(CC(C5)C3)C4)cc2)cc1 [1‐3au] = 91.7
